The measured values listed here are drawn from paper PMC10515640.

Would you mind telling me the reported pEC50 of each entry?
Molecular target: 14-3-3σ/C-RAF (Homo sapiens, UniProt P31947)
Construct: The 14-3-3 σ isoform (full-length for mass spectrometry and fluorescence anisotropy assays, ΔC for crystallography); made in house; host or cells: E. coli Rosetta 2(DE3)pLysS, pPROEX HTb vector
Sequence (P31947 whole entry, canonical isoform): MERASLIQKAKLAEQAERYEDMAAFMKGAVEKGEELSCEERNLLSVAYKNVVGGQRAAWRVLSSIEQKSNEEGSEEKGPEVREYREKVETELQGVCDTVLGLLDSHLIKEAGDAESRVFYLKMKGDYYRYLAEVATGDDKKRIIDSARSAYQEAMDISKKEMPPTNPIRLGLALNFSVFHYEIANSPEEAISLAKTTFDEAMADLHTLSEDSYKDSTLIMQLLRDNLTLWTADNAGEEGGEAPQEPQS
Test: Fluorescence anisotropy compound titration, FAM-labeled C-RAF peptide
Assay type: binding
Conditions: 10 nM C-RAF-FAM labeled peptide, 5 µM 14-3-3σ, overnight incubation; read-out: EC50 value C-RAF (FA compound titration)
Scale note: pEC50 = -log10(concentration in M).

Query: pEC50; subject: CC(C)(Oc1ccc(Cl)cc1)C(=O)N1CCC(CCCNC(=O)CCl)CC1
3.85

Query: pEC50; subject: O=C(CCl)N1CCC2(CC1)CCN(C(=O)C1(Nc3ccc(Cl)cc3)CCOCC1)CC2
4.24
